The reported numbers originate from the supplement of paper PMC6555819.

- Tested on: RARg homodimer (NR concentration 270 nM)
- method: PBM binding z-score (relative to random genomic background probes); higher = stronger binding; sequences stand for … in GC…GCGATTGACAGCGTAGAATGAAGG
Cut-off 1 on PBM binding z-score, inclusive. At or above means 1; below means 0.

Example results:
| sequence_record | assigned_category |
| --- | --- |
| CTCGAAAGGTCGCGCTCAGGTGAGTATACCAAAC | 1 |
| TCTTGTAGATCAATAGAGGTAAAGAAAGTGCGCT | 0 |
| AGACTGAGGTTATTAAGATCAGGGAATTGCGGTC | 0 |

In: Quick check, PBM binding z-score >= 1? CTCGAAAGGTCGGTTGTGGTGAGTATACGGATAA
Out: 1

In: Quick check, PBM binding z-score >= 1? GCTTGTAGATCAAGGTTAAGACAGACTAAGCTAA
Out: 0

In: Quick check, PBM binding z-score >= 1? CGTCATAGTTCAACTAAGGTAACGTAAAGCACGC
Out: 1
